In this section, each of the compounds is paired with its reported pEC50.
target-desc: human GALR2 (Homo sapiens)
Construct: host or cells: HEK293 cells stably expressing Gαqi
Sequence (O43603 1-387): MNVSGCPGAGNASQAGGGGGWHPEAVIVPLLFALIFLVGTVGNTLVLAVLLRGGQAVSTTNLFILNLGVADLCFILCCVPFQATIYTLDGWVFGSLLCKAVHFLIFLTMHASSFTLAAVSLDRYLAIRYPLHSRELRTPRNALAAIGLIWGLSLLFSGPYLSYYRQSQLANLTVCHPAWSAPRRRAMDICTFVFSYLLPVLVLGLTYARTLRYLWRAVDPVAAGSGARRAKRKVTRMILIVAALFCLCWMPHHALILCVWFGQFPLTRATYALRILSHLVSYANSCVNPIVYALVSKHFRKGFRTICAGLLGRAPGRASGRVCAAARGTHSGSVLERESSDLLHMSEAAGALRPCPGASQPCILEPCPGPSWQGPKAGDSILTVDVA
assay-name: SRE-luc reporter assay, GALR2;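 note: luciferase activity read in cell lysates after exposure to rising peptide concentrations, EC50 being the agonist level giving half-maximal stimulation from a sigmoidal nonlinear regression fit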
Type: cell-based
experimental-setup: HEK293-Gqi cells transfected with SRE-luc and human GALR2; 6 h ligand treatment; mean ± S.E. of at least three independent experiments; NM = not measurable; read-out: GALR2 EC50
pEC50: −log10 of the molar value. Where a SMILES comes first, the peptide text is derived from it. [ ]: non-standard residue; d: D form. Cit = NC(=O)NCCC[C@H](N)C(=O)O

compound	target-desc	reported-relation	pEC50
CSCC[C@H](NC(=O)[C@@H](C)NC(=O)[C@H](CCC(N)=O)NC(=O)[C@@H]1CCCN1C(=O)[C@@H](NC(=O)[C@H](Cc1c[nH]c2ccccc12)NC(=O)[C@@H](N)CC(N)=O)[C@@H](C)O)C(=O)N[C@@H](CC(C)C)C(=O)N[C@@H](Cc1ccc(O)cc1)C(=O)N[C@@H](CC(C)C)C(=O)N[C@@H](CCCCN)C(=O)NCC(=O)N[C@@H](C)C(=O)N[C@@H](CCC(N)=O)C(N)=O	human GALR2 (Homo sapiens)	=	6.68
CSCC[C@H](NC(=O)[C@H](C)NC(=O)[C@H](CCC(N)=O)NC(=O)[C@@H]1CCCN1C(=O)[C@@H](NC(=O)[C@@H](Cc1c[nH]c2ccccc12)NC(=O)[C@@H](N)CC(N)=O)[C@@H](C)O)C(=O)N[C@@H](CC(C)C)C(=O)N[C@@H](Cc1ccc(O)cc1)C(=O)N[C@@H](CC(C)C)C(=O)N[C@@H](CCCCN)C(=O)NCC(=O)N[C@@H](C)C(=O)N[C@@H](CCC(N)=O)C(N)=O	human GALR2 (Homo sapiens)	=	7.00
CSCC[C@H](NC(=O)[C@H](C)NC(=O)[C@H](CCC(N)=O)NC(=O)[C@@H]1CCCN1C(=O)[C@@H](NC(=O)[C@H](Cc1c[nH]c2ccccc12)NC(=O)[C@@H](N)CC(N)=O)[C@@H](C)O)C(=O)N[C@@H](CC(C)C)C(=O)N[C@@H](Cc1ccc(O)cc1)C(=O)N[C@H](CC(C)C)C(=O)N[C@@H](CCCCN)C(=O)NCC(=O)N[C@@H](C)C(=O)N[C@@H](CCC(N)=O)C(N)=O	human GALR2 (Homo sapiens)	<	5.00
CSCC[C@H](NC(=O)[C@H](C)NC(=O)[C@H](CCC(N)=O)NC(=O)[C@@H]1CCCN1C(=O)[C@@H](NC(=O)[C@H](Cc1c[nH]c2ccccc12)NC(=O)[C@H](N)CC(N)=O)[C@@H](C)O)C(=O)N[C@@H](CC(C)C)C(=O)N[C@@H](Cc1ccc(O)cc1)C(=O)N[C@@H](CC(C)C)C(=O)N[C@@H](CCCCN)C(=O)NCC(=O)N[C@@H](C)C(=O)N[C@@H](CCC(N)=O)C(N)=O	human GALR2 (Homo sapiens)	=	7.67
CSCC[C@H](NC(=O)[C@H](C)NC(=O)[C@H](CCC(N)=O)NC(=O)[C@@H]1CCCN1C(=O)[C@@H](NC(=O)[C@H](Cc1c[nH]c2ccccc12)NC(=O)[C@@H](N)CCCNC(N)=O)[C@@H](C)O)C(=O)N[C@@H](CC(C)C)C(=O)N[C@@H](Cc1ccc(O)cc1)C(=O)N[C@@H](CC(C)C)C(=O)N[C@@H](CCCCN)C(=O)NCC(=O)N[C@@H](C)C(=O)N[C@@H](CCC(N)=O)C(N)=O [Cit1] (H-[Cit]WTPQAMLYLKGAQ-NH2)	human GALR2 (Homo sapiens)	=	7.21

Origin of measurements: paper PMC4764904
